# EXPERIMENT SUMMARY: NCI Yeast Anticancer Drug Screen. Data for the bub3 strain (AID 167)
# RUN CONDITIONS: S. cerevisiae bub3 mutant strain, at 50.0 µM (retest, dose inferred, filed as 5.0), hits give high values
This is part of a sample that, as a whole, favours compounds with a hit. Of some 79,000 tested, about 15% had one in any assay.
Listed here: items and their measured growth inhibition.
Unit % implied. Number only.

COc1ccc(Nc2nc3ccc(C(F)(F)F)cc3nc2C(=O)O)cc1; 12
CC1=CC[C@@H]2[C@@H](CC[C@@]2(C)O)C(C)(C)[C@H]1CC[C@@H]1[C@@]2(C)CC[C@@H](O)C(C)(C)O[C@@H]2CC[C@]1(C)O; 33

Turning now to a further compound:
Query Cc1ccccc1N=C(N)Nc1ccccc1C (tested in a mixture with another compound) yields growth inhibition of 11

====

# EXPERIMENT SUMMARY: NCI Yeast Anticancer Drug Screen. Data for the rad50 strain (AID 155);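 further: 0% = growth of vehicle-only cultures of the same strain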
# RUN CONDITIONS: S. cerevisiae rad50 strain growth inhibition; at 50.0 µM (retest, dose inferred, filed as 5.0)
About 79,000 compounds went through this panel and 15% of them were active in at least one assay; those are over-represented in the sample as a whole. The source made the active and inactive calls. No stated cut-off is given here; in the data, active means growth inhibition above about 70%; inactive means the rest.
Lab note: assign the record to one of active, inactive

Solved entries (count: 3):
CCc1oc2ccccc2c1C(=O)c1cc(Br)c(O)c(Br)c1; active
CC1OC(OC2C(OC3CCC4(C)C(CCC5(C)C4CC=C4C6CC(C)(C)CCC6(C(=O)O)CCC45C)C3(C)CO)OCC(O)C2O)C(O)C(O)C1O (stereo not given); active
Cc1cc(C(=O)c2ccccc2Cl)ccc1O; active

Asked: Which outcome was entered for the compound Nc1cccc2cccc([N+](=O)[O-])c12 in this test?
Given back: inactive

Asked: Which outcome was entered for the compound O=C1/C(=C/c2ccccc2)CCC/C1=C\c1ccccc1 in this test?
Given back: inactive

Asked: Which outcome was entered for the compound Cc1nnc(N/N=C/c2ccc([N+](=O)[O-])o2)[nH]c1=O in this test?
Given back: inactive

Asked: Which outcome was entered for the compound CC1(O)CCCCCC1 in this test?
Given back: active

Asked: Which outcome was entered for the compound OC(CSc1ccccc1)CN1CCN(c2ccc(Cl)cc2)CC1 (stereo not given) in this test?
Given back: active

Asked: Which outcome was entered for the compound COc1cccc2c1C(=O)c1c(O)c3c(c(O)c1C2=O)C[C@@](O)(C(=O)CO)C[C@@H]3OC1CC(OC(C)=O)C(OC(C)=O)C(C)O1 (stereo not given in full) in this test?
Given back: active

Asked: Which outcome was entered for the compound COC(=O)c1nc(=S)[nH]c(C(=O)OC)c1C(=O)c1ccc(Cl)c(Cl)c1 in this test?
Given back: active

====

Listed here: items and their measured growth inhibition.
# EXPERIMENT SUMMARY: NCI Yeast Anticancer Drug Screen. Data for the mlh1 rad18 strain (AID 175)
# RUN CONDITIONS: S. cerevisiae mlh1 rad18 strain growth inhibition; at 50.0 µM (retest, dose inferred, filed as 5.0); hits give high values
Compounds without any hit were thinned out: in the full panel of roughly 79,000, 15% have a hit.
Unit % implied. Number only.

The cases that follow already have their growth inhibition on record.
N#CCc1cccc2ccccc12; 10
O=C1C=Cc2ccccc2/C1=C/c1nc(-c2ccccc2)oc1O; 97
Fc1ccc(NCCS)cc1; 90
CN1CCC(CN2c3ccccc3Sc3ccccc32)C1 (configuration not stated); 16
C=CCO/N=C/c1cc(NC(=S)c2ccoc2C)ccc1Cl; 91
O=[N+]([O-])c1ccc(C(Br)c2ccc([N+](=O)[O-])cc2)cc1; 99

Turning now to a further compound:
Query CN(C)c1ccc(SC#N)cc1 yields growth inhibition of 87

====

# EXPERIMENT SUMMARY: NCI Yeast Anticancer Drug Screen. Data for the sgs1 mgt1 strain (AID 161);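 further: 0% = growth of cultures given vehicle only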
# RUN CONDITIONS: S. cerevisiae sgs1 mgt1 strain, at 5.0 µM (retest, dose inferred, filed as 0.5)
About 79,000 compounds went through this panel and 15% of them were active in at least one assay; those are over-represented in the sample as a whole. The source made the active and inactive calls. Cut-off read from the data, not from the text of the source: active = growth inhibition above about 70%; inactive = the rest.
Lab note: assign the record to one of true (1) = active, false (0) = inactive

Solved entries (count: 5):
Cc1cc(N/N=C/c2ccccn2)nc2ccccc12; false (0)
Nc1c(N)c(Cl)c(Cl)c(Cl)c1Cl; false (0)
CN(C)c1ccc(C(=C2C=CC(=[N+](C)C)C=C2)c2ccc(N(C)C)cc2)cc1; true (1)
CCCCCCCCCCCCNCCCc1ccccc1; true (1)
N#CC(c1ccccc1)C(c1ccccc1)c1ccccc1 (stereo not given); false (0)

Asked: Which outcome was entered for the compound CCOC(=O)C1=C(C(=O)c2ccccc2)C(c2cccc([N+](=O)[O-])c2)C(C(=O)c2ccccc2)=C(C(=O)OCC)N1 in this test?
Given back: false (0)

Asked: Which outcome was entered for the compound CC(=O)c1ccc2c(c1)CCc1ccccc1-2 in this test?
Given back: false (0)

Asked: Which outcome was entered for the compound CN(C)c1ccc2cc3c(cc2c1)Oc1ccccc1N3.[Cl][Zn][Cl] in this test?
Given back: false (0)

Asked: Which outcome was entered for the compound C(CCc1nn[nH]n1)CCC1CCCCC1 in this test?
Given back: false (0)

Asked: Which outcome was entered for the compound Cc1ccccc1NC(=O)Cc1csc2[n+]1C(=O)/C(=C/c1ccc([N+](=O)[O-])cc1)S2 in this test?
Given back: false (0)

Asked: Which outcome was entered for the compound O=[N+]([O-])C=C(c1ccccc1)c1ccccc1 in this test?
Given back: false (0)

Asked: Which outcome was entered for the compound CC1(C)OCC(COC(c2ccccc2)(c2ccccc2)c2ccccc2)O1 (stereo not given) in this test?
Given back: false (0)

Asked: Which outcome was entered for the compound CC(C)CNC(=O)C(C)O (stereo not given) in this test?
Given back: false (0)

====

# EXPERIMENT SUMMARY: NCI Yeast Anticancer Drug Screen. Data for the rad50 strain (AID 155);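 further: 0% = growth of vehicle-only cultures of the same strain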
# RUN CONDITIONS: S. cerevisiae rad50 strain growth inhibition; at 5.0 µM (retest, dose inferred, filed as 0.5); hits give high values
The panel holds about 79,000 compounds, 15% with a hit somewhere; the sample as a whole holds those more often.
Classification field: label 1 = growth inhibition at or over 20%; label 0 = growth inhibition under 20%.

O=C1/C(=C/c2ccccn2)CCc2ccccc21; label 1

Asked: Determine whether measured growth inhibition meets or exceeds 20% for Cc1ccc(/C=C2\CNC/C(=C\c3ccc(C)cc3)C2=O)cc1
Given back: label 1

Asked: Determine whether measured growth inhibition meets or exceeds 20% for CCCC[n+]1c(/C=C\c2c(OC)cc(OC)cc2OC)ccc2ccccc21
Given back: label 1

Asked: Determine whether measured growth inhibition meets or exceeds 20% for O=Cc1ccc(O)c(O)c1O
Given back: label 0

====

# EXPERIMENT SUMMARY: NCI Yeast Anticancer Drug Screen. Data for the mlh1 rad18 strain (AID 175)
# RUN CONDITIONS: S. cerevisiae mlh1 rad18 strain growth inhibition; at 5.0 µM (retest, dose inferred, filed as 0.5)
# Protocol: Growth inhibition of yeast strains with defined genetic alterations is measured as a screen for potential anti-cancer activity. Selected strains with alterations in DNA damage repair or cell cycle control were exposed to compounds and growth inhibition was measured relative to vehicle treated controls. The strain used in this assay is mlh1 rad18
The panel holds about 79,000 compounds, 15% with a hit somewhere; the sample as a whole holds those more often. Active and inactive are the calls of the source. Rule as the data show it: active = growth inhibition above about 70%; inactive = the rest.
Lab note: assign the record to one of 1 = active, 0 = inactive

Solved entries (count: 4):
CN(C)CC(C)(CN(C)C)C(=O)/C=C/c1c(Cl)cccc1Cl; 0
CCSC(=O)c1ccc([N+](=O)[O-])o1; 0
COc1ccc(/C=C2/C(=O)ON=C2C)cc1; 0
Oc1ccc(/C=C/c2ccc(Cl)cc2)cc1; 0

Asked: Which outcome was entered for the compound O=C(c1ccccc1)N(CCCl)C(=O)N(CCCl)C(=O)c1ccccc1 in this test?
Given back: 0

Asked: Which outcome was entered for the compound Cc1cc(C)c(C#N)c(Sc2nc(C)c([N+](=O)[O-])c(C)c2C#N)n1 in this test?
Given back: 0

Asked: Which outcome was entered for the compound Cc1cc(O)c2c(c1)C(=O)C(c1c(C)cc3c(c1O)C(=O)C1OC1C3=O)=CC2=O (configuration not stated) in this test?
Given back: 1

Asked: Which outcome was entered for the compound CCC1CCCCN1C(=S)N/N=C(\C)c1ccccn1 (configuration not stated) in this test?
Given back: 0

Asked: Which outcome was entered for the compound COc1ccc(N=CC2CCCCC2=O)c([N+](=O)[O-])c1 (configuration not stated) in this test?
Given back: 0

Asked: Which outcome was entered for the compound NC(CS/C(Cl)=C/Cl)C(=O)O (configuration not stated) in this test?
Given back: 1

Asked: Which outcome was entered for the compound CN=C(N)N/N=C(\C)c1ccc2c(c1)Cc1ccccc1-2 in this test?
Given back: 0

Asked: Which outcome was entered for the compound O=C1Nc2ccc(Br)cc2C1=O in this test?
Given back: 0
